molecular target: CGRP antigen; test: cell-based or functional assay
measured-attribute: relative activity (%) vs C245

[[record]]
binder = "hu237 (antibody, V domains shown, 3C1 HC-4/3C1 LC-4) VH: QVQLVQSGAEVKKPGASVKVSCKASGYTFTGYTMNWVRQAPGQGLEWMGLINPYIGNTHYNQKFKDRVTFTVDRSSSTAYMELSRLRSDDTAVYYCARELDSGFDYWGQGTLVTVSS VL: DVVMTQSPDSLAVSLGERATINCRSSQNIVHSNADTYLEWYQQKPGQPPKLLIYKVSNRFSGVPDRFSGSGSGTDFTLTISSLQAEDVAVYYCYQGSHVPWTFGQGTKLEIK"
measured = 22

[[record]]
binder = "hu223 (antibody, V domains shown, 3C1 HC-1/3C1 LC-2) VH: QVQLVQSGAEVKKPGASVKVSCKASGYSFTGYTMNWVRQAPGQRLEWMGLINPYIGNTHYNQKFKDRVTFTVDRSSSTAYMELSSLRSEDTAVYYCARELDSGFDYWGQGTLVTVSS VL: DVVMTQTPLSLSVTPGQPASISCRSSQNIVHSNGDTYLEWYLQKPGQSPQLLIYKVSNRFSGVPDRFSGSGSGTDFTLKISRVEAEDVGVYYCYQGSHVPWTFGQGTKLEIK"
measured = 51


Entry source: patent US20260125454A1
